Record form. Attribute: IC50. Fill in for each entry.
Test system: EA.hy 926
experiment description: Antiproliferative activity against human EAhy926 cells after 48 hrs by MTT assay
Assay type: functional, cell-based
condition info: EA.hy 926, 48 h
Answers are plain numbers, in µM.

smiles code: CCn1c2ccccc2c2cc(CNCCCNCc3cc4c5ccccc5n(CC)c4c(-c4cc(OC)c(OC)c(OC)c4)n3)nc(-c3cc(OC)c(OC)c(OC)c3)c21
quantitative readout: 13.4

Field: next molecule
Task: GET /values?readout=IC50&item= "COc1ccc(-c2nc(CNCCCCNCc3cc4c([nH]c5ccccc54)c(-c4ccc(OC)cc4)n3)cc3c2[nH]c2ccccc23)cc1"
Output: 10.3
